Test system: Mycoplasma gallisepticum 352-tiamulin resistant strain
Experiment: microbe, parasite or virus in culture
Format: cell-based
Conditions: broth dilution, 37° C.
Some compounds, each annotated with its measured MIC, Mycoplasma gallisepticum 352-tiamulin resistant strain.
Enter your answer as a number in µg/mL; do not include the unit.

INSERT INTO results (compound, u, observed_value) VALUES
  ('C=CC1(C)CC(OC(=O)CSc2ncc(NC(=O)COC(C)=O)s2)C2(C)C(C)CCC3(CCC(=O)C32)C(C)C1O (centres unmarked) [Compound 10]', 'µg/mL', 0.03),
  ('C=CC1(C)CC(OC(=O)CSc2ncc(NC(=O)C(C)(C)CC)s2)C2(C)C(C)CCC3(CCC(=O)C32)C(C)C1O (centres unmarked) [Compound 18]', 'µg/mL', 0.5),
  ('C=CC1(C)CC(OC(=O)CSc2ncc(NC(=O)C(Cl)(Cl)Cl)s2)C2(C)C(C)CCC3(CCC(=O)C32)C(C)C1O (centres unmarked) [Compound 23]', 'µg/mL', 1);

Entry C=CC1(C)CC(OC(=O)CSc2ncc(NC(=O)C3CCC3)s2)C2(C)C(C)CCC3(CCC(=O)C32)C(C)C1O (centres unmarked) [Compound 2] has what MIC, Mycoplasma gallisepticum 352-tiamulin resistant strain?
0.25

Entry C=CC1(C)CC(OC(=O)CSc2ncc(NC(=O)C3CCCCC3)s2)C2(C)C(C)CCC3(CCC(=O)C32)C(C)C1O (centres unmarked) [Compound 4] has what MIC, Mycoplasma gallisepticum 352-tiamulin resistant strain?
0.25

----------
Test system: Mycoplasma gallisepticum 352
Assay: In vitro inhibition experiment of mycoplasma activity, broth dilution MIC
Type: cell-based
Conditions: 37° C.
Protocol: The broth dilution method was adopted in the experiment. The tiamulin was selected as the control drug in the experiment. The strains used in the experiment were Mycoplasma gallisepticum 352, 352-tiamulin resistant strain, and M47. Preparation of the target compound stock solution: the compound was dissolved with 1 mL of DMSO, then fixed in volume with a 250 mL volumetric flask and fully shaken to obtain the stock solution (5120 μg/mL). […]
Some molecules, each annotated with its measured MIC, Mycoplasma gallisepticum 352.
Enter your answer as a number in µg/mL; do not include the unit.

INSERT INTO assay_data (molecule, tested_target, observed_value) VALUES
  ('C=CC1(C)CC(OC(=O)CSc2ncc(NC(=O)C(Cl)(Cl)Cl)s2)C2(C)C(C)CCC3(CCC(=O)C32)C(C)C1O (centres unmarked)', 'Mycoplasma gallisepticum 352', 0.125);

Entry C=CC1(C)CC(OC(=O)CSc2ncc(NC(=O)C3CCCCC3)s2)C2(C)C(C)CCC3(CCC(=O)C32)C(C)C1O (centres unmarked) has what MIC, Mycoplasma gallisepticum 352?
0.015

Entry C=CC1(C)CC(OC(=O)CSc2ncc(NC(=O)C(C)(C)CC)s2)C2(C)C(C)CCC3(CCC(=O)C32)C(C)C1O (centres unmarked) has what MIC, Mycoplasma gallisepticum 352?
0.03

Entry C=CC1(C)CC(OC(=O)CSc2ncc(NC(=O)C3CCC3)s2)C2(C)C(C)CCC3(CCC(=O)C32)C(C)C1O (centres unmarked) has what MIC, Mycoplasma gallisepticum 352?
0.008
